# Target or test system: Follistatin-related protein 3 (Homo sapiens) (UniProt O95633)
# Sequence (O95633 whole entry, looked up): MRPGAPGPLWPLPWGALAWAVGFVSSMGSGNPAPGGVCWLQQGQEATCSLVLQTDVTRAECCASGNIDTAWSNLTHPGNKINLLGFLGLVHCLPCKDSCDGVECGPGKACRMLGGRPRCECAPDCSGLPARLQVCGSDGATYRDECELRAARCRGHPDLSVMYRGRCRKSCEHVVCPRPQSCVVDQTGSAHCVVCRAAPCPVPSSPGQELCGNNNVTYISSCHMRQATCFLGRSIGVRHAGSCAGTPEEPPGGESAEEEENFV
# Assay text: FSTL3 binders on small-molecule microarrays, primary screen, biochemical, small-molecule microarray, 635 nm fluorescence (AID 1105);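 also: score merges emission near 667 nm and signal to noise per printed spot across three slides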
# Assay conditions: FSTL3 binding, higher = more signal
Each record's composite z-score is compared with small value = under -0.1, mid value = from -0.1 up to 0.8, large value = 0.8 and over to give its class.

1) [N-]=[N+]=Nc1ccccc1[C@H]1OC(c2ccc(OCCCO)cc2)=N[C@@]1(CCS(=O)(=O)c1ccccc1)C(=O)O = small value
2) Cc1ccc(F)cc1S(=O)(=O)N[C@@H]1CCN(Cc2ccc(-c3ccccc3)cc2)C1 = mid value
3) COC(=O)C1=CC(CCCO)=CC(C2CC2)N(Cc2sc3ccccc3c2Cl)C=C1C(=O)OC (stereo not given) = mid value
4) COc1ccc([Si](C)(C)[C@H]2[C@H](CC(=O)N(CCO)Cc3ccccc3)O[C@@]3(C(=O)N(Cc4cccc(N5CCC5=O)c4)c4ccccc43)[C@@H]2C)cc1 = large value
5) CO[C@H]1O[C@H](CO)[C@@H](OC(=O)Nc2ccc(Oc3ccccc3)cc2)[C@H](OC(=O)Nc2ccccc2)[C@H]1OC(=O)Nc1ccccc1 = large value
6) C=CC(=C)C1=CCO[C@@H]1[C@H]1CCCN1S(=O)(=O)c1ccccc1[N+](=O)[O-] = large value
7) Cc1ccc([C@H]2C(C(=O)O)=C[C@@H](C)N2S(=O)(=O)c2ccc(C)cc2)cc1 = small value
8) CCCN1C(=O)[C@]2(COC(c3ccc(OCCCO)cc3)=N2)Cc2ccccc21 = mid value
9) C=C(COC)C(=O)CC[C@H](OC(C)=O)c1cccc(OCCO)c1 = small value
10) CC(C)N1C(=O)[C@@]2(c3ccc([N+](=O)[O-])cc3)CC(=O)N(CC34CC5CC(CC(C5)C3)C4)[C@@H]2c2ccc(CO)cc21 = small value
11) C=C(CCCC)/C(=C/C[C@H](OC(C)=O)c1ccc(CO)o1)c1cnc2ccccc2c1 = large value
12) COCCOC(=O)N1C(=O)[C@@]2(c3cc(C#Cc4ccc(OC)cc4)ccc31)[C@H](C(=O)N1CCN(c3ncccn3)CC1)[C@H]1C(=O)O[C@H](c3ccccc3)[C@H](c3ccccc3)N1[C@@H]2c1ccc(O)cc1 = mid value
13) O=C(CS)NCCCCCCNC(=O)[C@H]1C[C@H]2C(=O)NCC(=O)N2[C@H]1c1ccc(O)cc1 = small value
14) O=C1O[C@H](c2ccccc2)[C@H](c2ccccc2)N2[C@H]1[C@@H](C(=O)O)[C@]1(C(=O)Nc3ccc(C#CC4(O)CCCCCC4)cc31)[C@H]2c1ccc(OCCO)cc1 = mid value
15) COC(=O)[C@@]1(Cc2ccccc2)[C@H]2c3cc(C(=O)N4CCCC4)n(Cc4ccc(C)o4)c3C[C@H]2CN1C(=O)c1ccccc1 = mid value

====

# Assay text: yeast growth modulation, basal conditions, primary screen, YJM789 clinical isolate, OD600, 24 h (AID 1089);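 also: growth of clinical yeast isolate S. cerevisiae YJM 789 seeded 1000 cells per well; test concentration not given here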
# Assay conditions: S. cerevisiae YJM789 growth, higher = more signal, called active from +8 up or from −8 down
Threshold check on z-score: at or above -0.4 gives MET, strictly below gives NOT MET.

1) Cc1ccc([C@H]2C(C(=O)O)=C[C@@H](C)N2S(=O)(=O)c2ccc(C)cc2)cc1 = NOT MET
2) CN1CCC(CCCO)=CC1c1ccc(CN2CCCC2)cc1 (stereo not drawn) = NOT MET
3) [N-]=[N+]=NCc1ccccc1[C@@H]1OC(c2ccc(OCCCO)cc2)=N[C@]1(Cc1ccccc1N=[N+]=[N-])C(=O)NCc1ccccc1 = MET
4) O=C1c2ccccc2[C@@]2(Cc3ccccc3N(Cc3ccccc3)C2=O)[C@H](c2ccc(CO)cc2)N1C1CCCCC1 = NOT MET
5) O=C(CS)NCCCCCCNC(=O)[C@@H]1C[C@@H]2C(=O)N3CCC[C@H]3C(=O)N2[C@@H]1c1ccc(O)cc1 = MET
6) COc1cc(C(O)C2C=CC3C(=O)N(c4ccccc4)C(=O)C3N2Nc2ccc(C#N)cc2)cc(OC)c1OC (stereo not drawn) = NOT MET
7) C=C[C@@H](COC(C)=O)N(Cc1ccccc1[N+](=O)[O-])S(=O)(=O)c1ccc(Br)cc1 = NOT MET
8) N#Cc1ccc(NN2C(C(O)c3ccc([N+](=O)[O-])cc3)C=CC3C(=O)N(c4ccccc4)C(=O)C32)cc1 (stereo not drawn) = MET
9) COc1ccc(NN2C(C(O)c3ccc(OC)c(OCc4ccccc4)c3)C=CC3C(=O)N(C4CCCCC4)C(=O)C32)cc1 (stereo not drawn) = MET
10) Cc1ccc(S[C@]2(C(=O)NCC(C)C)CC(=O)N(Cc3ccccc3)[C@@H]2c2ccc(CO)cc2I)cc1 = NOT MET
11) CC(c1ccccc1)C(O)C1C=CC2C(=O)NC(=O)C2N1Nc1ccccn1 (stereo not drawn) = MET
12) COCCOC(=O)N1C(=O)[C@@]2(c3cc(C#CC4(O)CCCCCC4)ccc31)[C@H](C(=O)N1CCCCCCC1)[C@H]1C(=O)O[C@H](c3ccccc3)[C@H](c3ccccc3)N1[C@@H]2c1ccccc1OCCO = MET
13) COC(=O)C(CC#Cc1ccc2c(c1)[C@]1(C(=O)N2)[C@H](c2ccc(OCCO)cc2)N2[C@H](c3ccccc3)[C@H](c3ccccc3)OC(=O)[C@H]2[C@@H]1C(=O)NC[C@H](O)c1ccccc1)C(=O)OC = MET
14) CCCCCN1CC=CC23O[C@@H]4/C=C\CCCOC(=O)C4[C@H]2C(=O)N(CCCCCCO)[C@@H]3C1=O (stereo partly drawn) = NOT MET
15) COCCOC(=O)N1C(=O)[C@@]2(c3cc(C#CCNC(N)=O)ccc31)[C@H](C(=O)N1CCc3cc(OC)c(OC)cc3C1)[C@H]1C(=O)O[C@H](c3ccccc3)[C@H](c3ccccc3)N1[C@@H]2c1ccc(OCCO)cc1 = MET
16) CCCCC=C[C@@H](NC(=O)c1ccc(C(=O)OC)cc1)c1ccccc1 = MET
17) C=C[C@H](COC(C)=O)N(Cc1ccc(OC(C)=O)c(OC)c1)S(=O)(=O)c1ccc(Br)cc1 = NOT MET
18) COC(=O)[C@@]1(Cc2ccc(OC)cc2)[C@H]2c3cc(C(=O)N(C)C)n(Cc4c(OC)[nH]cc(C)c4=O)c3C[C@H]2CN1C(=O)c1ccccc1 = NOT MET
19) CCCCCCCCCCC(O)C1C=CC2C(=O)N(Cc3ccccc3)C(=O)C2N1n1cnnc1 (stereo not drawn) = MET
20) O=C1N(CCS(=O)(=O)c2ccccc2)Cc2ccccc2[C@H]2OC(c3ccc(OCCCO)cc3)=N[C@@]12CCS(=O)(=O)c1ccccc1 = MET
21) C=CCC(OC(C)=O)[C@@H]1[C@@H](N(Cc2ccc(-c3cccc(C(F)(F)F)c3)o2)C(=O)c2ccc(C)cc2)c2cc(OCCCO)ccc2N1C(=O)c1ccc(-c2ccccc2)cc1 (stereo partly drawn) = MET
22) COC(=O)c1ccc(C(O)C2C=CC3C(=O)N(C)C(=O)C3N2NC(=O)OC(C)(C)C)o1 (stereo not drawn) = MET
23) CCOC(=O)C[C@H]1[C@H](OC(=O)Cc2ccc3c(c2)OCO3)[C@@H](NC(=O)c2ccc(-c3ccccc3)cc2)c2cc(OCCCO)ccc2N1C(=O)c1ccccc1 = MET
24) CO[C@H]1O[C@H](CO)[C@@H](OC(=O)Nc2ccc3c(c2)OCO3)[C@H](OC(=O)Nc2ccccc2)[C@H]1OC(=O)Nc1ccccc1 = MET
25) O=C1O[C@H](c2ccccc2)[C@H](c2ccccc2)N2[C@H]1[C@@H](C(=O)NC[C@H](O)c1ccccc1)[C@]1(C(=O)Nc3ccc(C#CCCO)cc31)[C@H]2c1ccc(O)cc1 = MET
26) O=C1N(CCS(=O)(=O)c2ccccc2)c2ccccc2C[C@@]12COC(c1ccc(OCCCO)cc1)=N2 = MET
